Values were extracted from paper PMC5576976.

Molecular target: UniProt:Q9NZI8
Sequence (Q9NZI8 whole entry): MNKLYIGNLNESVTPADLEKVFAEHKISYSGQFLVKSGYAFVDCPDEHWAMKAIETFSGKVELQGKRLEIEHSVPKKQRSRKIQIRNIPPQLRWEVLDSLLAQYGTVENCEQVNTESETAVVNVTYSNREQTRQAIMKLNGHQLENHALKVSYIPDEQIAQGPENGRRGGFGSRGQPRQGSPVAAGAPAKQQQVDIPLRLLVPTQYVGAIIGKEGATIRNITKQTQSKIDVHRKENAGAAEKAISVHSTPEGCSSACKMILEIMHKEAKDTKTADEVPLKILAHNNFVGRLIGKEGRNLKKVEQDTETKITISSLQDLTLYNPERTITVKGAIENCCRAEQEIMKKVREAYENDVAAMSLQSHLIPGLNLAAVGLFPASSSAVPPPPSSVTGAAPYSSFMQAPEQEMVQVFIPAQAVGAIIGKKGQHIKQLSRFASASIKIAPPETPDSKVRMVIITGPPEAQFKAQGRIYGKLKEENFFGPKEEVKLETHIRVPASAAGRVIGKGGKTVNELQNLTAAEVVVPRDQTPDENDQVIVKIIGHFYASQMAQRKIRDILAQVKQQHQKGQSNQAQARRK
observation.type: IC50 (µM)
The reply should be a number in µM, with the unit left off.

Lookup: Hi! What's the reported IC50 for NC(=O)c1ccccc1N=Cc1ccc(Br)s1 [BTYNB] on UniProt:Q9NZI8?
Found: 5
